assay: CCTE_Shafer_MEA_dev_per_network_spike_spike_percent: CCTE's Neural Network Formation Assay for Percent of Spikes in a Network Spike, Shafer Lab (AID 2284054)
The source made the active and inactive calls. How the source made its calls: active means hit-call score of the fitted dose curve at least 0.9, where 1 is the maximum; inactive means score below 0.9.
Pick one and only one: active, inactive

Solved cases below.
>  <Compound>
CCOP(=O)(OCC)Oc1cc(C)nc(C(C)C)n1

>  <Class Assignment>
inactive

$$$$
>  <Compound>
CC(C)N(C(=O)SCC(Cl)=C(Cl)Cl)C(C)C

>  <Class Assignment>
active

$$$$
>  <Compound>
CCOP(=S)(OCC)SCCSCC

>  <Class Assignment>
inactive

$$$$

Request: Test call for this compound, please: C#CCC1=C(C)C(OC(=O)C2C(C=C(C)C)C2(C)C)CC1=O (configuration not stated)
Response: active

Request: Can you look up the reported call for CSC1=N[C@@](C)(c2ccccc2)C(=O)N1Nc1ccccc1 for me?
Response: inactive

Request: What is the recorded call for this compound in the test? CCOC(=O)CC(SP(=O)(OC)OC)C(=O)OCC (configuration not stated)
Response: inactive

Request: # lookup: test call for CCCSP(=O)(OCC)Oc1ccc(Br)cc1Cl (configuration not stated)
Response: inactive
